Catalogue of inhibition in vivo at 0.01 % strength values
tested on: plasma cholesterol level; assay: In vivo inhibition of the increase in plasma cholesterol level in cholesterol/cholic acid-fed rats; conditions: Rattus norvegicus, feed or water, 72 h, dose 0.01 %w/w in diet; increase in plasma cholesterol level measured after 3 days, relative to control animals on cholesterol supplemented diet; read-out: In-vivo % Reduction
// return the numeric value with its unit appended

Example results:
| compound | tested-system | inhibition in vivo at 0.01 % strength |
| --- | --- | --- |
| C(=C\CSc1nc(-c2ccccc2)c(-c2ccccc2)[nH]1)/CSc1nc(-c2ccccc2)c(-c2ccccc2)[nH]1 [Q] | plasma cholesterol level | 74% |
| Cn1cnnc1SCCCSc1nc(-c2ccccc2)c(-c2ccccc2)[nH]1 [Compound I] | plasma cholesterol level | 5% |

Look up inhibition in vivo at 0.01 % strength for this compound: Cn1nnnc1SCCCSc1nc(-c2ccccc2)c(-c2ccccc2)[nH]1 [J]
17%

Now consider c1ccc(-c2nc(SCCCSc3ncc[nH]3)[nH]c2-c2ccccc2)cc1 [M] and answer again.
107%

Now consider Cl.Cl.c1ccc(-c2nc(SCCCSc3nc(-c4ccccn4)c(-c4ccccn4)[nH]3)[nH]c2-c2ccccc2)cc1 [Compound K, dihydrochloride] and answer again.
4%
